System: foxtail, giant (Setaria faberii)
TEST_SUMMARY: Test A preemergence, giant foxtail
Format: in vivo
MEASUREMENT_CONTEXT: 125 g ai/ha, 0 to 100 scale (0 no effect, 100 complete control)
ENDPOINT: Plant response rating, Foxtail, Giant

>>> readout_value("CN1CC(c2cccc(Oc3ccc(F)cn3)c2)C(C(=O)Nc2cccc(F)c2F)C1=O (single isomer, unassigned)")
90
>>> readout_value("CN1CC(c2cccc(Oc3ccc(C(F)(F)F)cn3)c2)C(C(=O)Nc2cccc(F)c2F)C1=O (single isomer, unassigned)")
90
>>> readout_value("O=C1NCC(c2cccc(OCc3ccccc3)c2)C1C(=O)Nc1ccccc1F (stereo not shown)")
0
>>> readout_value("O=C1NCC(c2cccc(Oc3ncc(Cl)cn3)c2)C1C(=O)Nc1ccccc1F (stereo not shown)")
80
>>> readout_value("O=C1NCC(c2cccc(Cn3cccn3)c2)C1C(=O)Nc1ccccc1F (stereo not shown)")
20
>>> readout_value("O=C1NCC(c2cccc(Cn3ccc(C(F)(F)F)n3)c2)C1C(=O)Nc1ccc(F)cc1F (stereo not shown)")
0
>>> readout_value("CN1CC(c2cccc(Oc3ccc(F)cn3)c2)C(C(=O)Nc2ccccc2F)C1=O (single isomer, unassigned)")
90

* * *

Tested on: foxtail, giant (Setaria faberii)
TEST_SUMMARY: Test A postemergence, giant foxtail
Type: in vivo
MEASUREMENT_CONTEXT: 500 g ai/ha, visual injury, 0 to 100 scale (0 no effect, 100 complete control), approximately 10 days
ENDPOINT: Plant response rating, Foxtail, Giant

>>> readout_value("O=C1NCC(c2cccc(Oc3ncc(F)cn3)c2)C1C(=O)Nc1cccc(F)c1F (single isomer, unassigned)")
90
>>> readout_value("O=C1NCC(c2cccc(Cn3cccn3)c2)C1C(=O)Nc1ccc(F)cc1F (centres unmarked)")
20
>>> readout_value("O=C1NCC(c2cccc(OCc3ccccc3)c2)C1C(=O)Nc1ccc(F)cc1F (centres unmarked)")
0
>>> readout_value("O=C1NCC(c2cccc(Oc3ncc(Cl)cn3)c2)C1C(=O)Nc1cccc(F)c1F (centres unmarked)")
60
>>> readout_value("O=C1NCC(c2cccc(OCC3CC3)c2)C1C(=O)Nc1cccc(F)c1F (centres unmarked)")
90
>>> readout_value("O=C1NCC(c2cccc(COc3ccccc3)c2)C1C(=O)Nc1ccccc1Cl (centres unmarked)")
0
>>> readout_value("O=C1NCC(c2cccc(OCC3CC3)c2)C1C(=O)Nc1ccc(F)cc1F (centres unmarked)")
70
>>> readout_value("CC1(COc2cccc(C3CNC(=O)C3C(=O)Nc3ccccc3F)c2)COC1 (centres unmarked)")
70
>>> readout_value("O=C1NCC(c2cccc(COc3ccccc3)c2)C1C(=O)Nc1ccc(F)cc1F (centres unmarked)")
60
>>> readout_value("O=C1NCC(c2cccc(Oc3ccc(F)cn3)c2)C1C(=O)Nc1cccc(F)c1F (single isomer, unassigned)")
90
>>> readout_value("O=C1NCC(c2cccc(Cn3cccn3)c2)C1C(=O)Nc1cccc(F)c1F (centres unmarked)")
50
>>> readout_value("CON=Cc1cccc(C2CN(C)C(=O)C2C(=O)Nc2ccccc2F)c1 (centres unmarked)")
90
>>> readout_value("CN1CC(c2cccc(Sc3ccccc3)c2)C(C(=O)Nc2ccccc2F)C1=O (single isomer, unassigned)")
70
>>> readout_value("CC1(COc2cccc(C3CNC(=O)C3C(=O)Nc3ccccc3C(F)(F)F)c2)COC1 (centres unmarked)")
20
>>> readout_value("O=C1NCC(c2cccc(OCc3ccco3)c2)C1C(=O)Nc1ccccc1F (centres unmarked)")
30
>>> readout_value("O=C1NCC(c2cccc(OCc3ccccc3)c2)C1C(=O)Nc1ccccc1F (centres unmarked)")
0
>>> readout_value("O=C1NCC(c2cccc(OCC3OCCO3)c2)C1C(=O)Nc1cccc(F)c1F (centres unmarked)")
70

* * *

Test system: barnyardgrass (Echinochloa crus-galli)
TEST_SUMMARY: Test A preemergence, barnyardgrass
Type: in vivo
MEASUREMENT_CONTEXT: 125 g ai/ha, 0 to 100 scale (0 no effect, 100 complete control)
ENDPOINT: Plant response rating, Barnyardgrass

>>> readout_value("O=C1NCC(c2cccc(Oc3ccccn3)c2)C1C(=O)Nc1cccc(F)c1F (centres unmarked)")
20
>>> readout_value("CON=Cc1cccc(C2CN(C)C(=O)C2C(=O)Nc2ccccc2F)c1 (centres unmarked)")
90
>>> readout_value("CN(C)N=Cc1cccc(C2CN(C)C(=O)C2C(=O)Nc2ccccc2F)c1 (centres unmarked)")
0
>>> readout_value("CN1CC(c2cccc(Oc3ncc(F)cc3F)c2)C(C(=O)Nc2ccc(F)c(F)c2F)C1=O (single isomer, unassigned)")
90
>>> readout_value("O=C1NCC(c2cccc(Cn3ccc(C(F)(F)F)n3)c2)C1C(=O)Nc1ccc(F)c(F)c1F (centres unmarked)")
0

* * *

Tested on: foxtail, giant (Setaria faberii)
TEST_SUMMARY: Test A preemergence, giant foxtail
Format: in vivo
MEASUREMENT_CONTEXT: 125 g ai/ha, 0 to 100 scale (0 no effect, 100 complete control)
// reported Plant response rating, Foxtail, Giant for each item listed
ENDPOINT: Plant response rating, Foxtail, Giant

>>> readout_value("O=C1NCC(c2cccc(Oc3ccccn3)c2)C1C(=O)Nc1ccc(F)c(F)c1F (stereo not drawn)")
80
>>> readout_value("O=C1NCC(c2cccc(COc3ccccc3)c2)C1C(=O)Nc1cccc(F)c1F (stereo not drawn)")
20
>>> readout_value("CN1CC(c2cccc(Oc3ncc(F)cn3)c2)C(C(=O)Nc2ccccc2F)C1=O (single isomer, unassigned)")
90
>>> readout_value("O=C1NCC(c2cccc(OCC3CC3)c2)C1C(=O)Nc1ccccc1Cl (stereo not drawn)")
70
>>> readout_value("O=C1NCC(c2cccc(Cn3cccn3)c2)C1C(=O)Nc1cccc(F)c1F (stereo not drawn)")
20
>>> readout_value("O=C1NCC(c2ccccc2Cn2ccc(C(F)(F)F)n2)C1C(=O)Nc1cccc(F)c1F (stereo not drawn)")
60
>>> readout_value("O=C1NCC(c2cccc(OC(F)(F)C(F)OC(F)(F)F)c2)C1C(=O)Nc1ccccc1F (stereo not drawn)")
90
>>> readout_value("CN1CC(c2cccc(Oc3ccc(F)cc3)c2)C(C(=O)Nc2ccccc2F)C1=O (single isomer, unassigned)")
90
>>> readout_value("CN1CC(c2cccc(Sc3ccccc3)c2)C(C(=O)Nc2ccccc2F)C1=O (single isomer, unassigned)")
90
>>> readout_value("O=C1NCC(c2cccc(Oc3ccc(C(F)(F)F)cn3)c2)C1C(=O)Nc1ccccc1F (single isomer, unassigned)")
90
>>> readout_value("CN1CC(c2cccc(Sc3ccccc3)c2)C(C(=O)Nc2cccc(F)c2F)C1=O (single isomer, unassigned)")
90
>>> readout_value("CN1CC(c2cccc(OC(F)(F)C(F)OC(F)(F)F)c2)C(C(=O)Nc2cccc(F)c2F)C1=O (stereo not drawn)")
80
>>> readout_value("O=C1NCC(c2cccc(Cn3ccc(C(F)(F)F)n3)c2)C1C(=O)Nc1ccc(F)c(F)c1F (stereo not drawn)")
40
>>> readout_value("O=C1NCC(c2cccc(Cn3ccc(C(F)(F)F)n3)c2)C1C(=O)Nc1ccccc1F (stereo not drawn)")
20
>>> readout_value("O=C1NCC(c2cccc(Oc3ncc(Cl)cn3)c2)C1C(=O)Nc1cccc(F)c1F (stereo not drawn)")
0

* * *

// reported Plant response rating, Ryegrass, Italian for each item listed
Test system: ryegrass, Italian (Lolium multiflorum)
TEST_SUMMARY: Test A postemergence, Italian ryegrass
Format: in vivo
MEASUREMENT_CONTEXT: 125 g ai/ha, visual injury, 0 to 100 scale (0 no effect, 100 complete control), approximately 10 days
ENDPOINT: Plant response rating, Ryegrass, Italian

>>> readout_value("O=C1NCC(c2cccc(COc3ccccc3)c2)C1C(=O)Nc1cccc(F)c1F (stereo not shown)")
0
>>> readout_value("O=C1NCC(c2cccc(OC(F)(F)C(F)OC(F)(F)F)c2)C1C(=O)Nc1ccccc1F (stereo not shown)")
0
>>> readout_value("O=C1NCC(c2cccc(Oc3ncc(Cl)cn3)c2)C1C(=O)Nc1cccc(F)c1F (stereo not shown)")
0
>>> readout_value("O=C1NCC(c2ccccc2Cn2ccc(C(F)(F)F)n2)C1C(=O)Nc1cccc(F)c1F (stereo not shown)")
0
>>> readout_value("O=C1NCC(c2cccc(Cn3cccn3)c2)C1C(=O)Nc1ccccc1Cl (stereo not shown)")
0
>>> readout_value("CN1CC(c2cccc(Oc3ccc(F)cn3)c2)C(C(=O)Nc2cccc(F)c2C#N)C1=O (single isomer, unassigned)")
20
>>> readout_value("O=C1NCC(c2cccc(OCC3CC3)c2)C1C(=O)Nc1ccccc1F (stereo not shown)")
0
>>> readout_value("O=C1NCC(c2cccc(Oc3ncc(F)cc3F)c2)C1C(=O)Nc1cccc(F)c1F (single isomer, unassigned)")
0
>>> readout_value("O=C1NCC(c2cccc(OCC3CC3)c2)C1C(=O)Nc1ccccc1Cl (stereo not shown)")
0
>>> readout_value("O=C1NCC(c2cccc(Oc3ncc(Cl)cn3)c2)C1C(=O)Nc1ccccc1F (stereo not shown)")
0
>>> readout_value("CN1CC(c2cccc(Oc3ncc(F)cc3F)c2)C(C(=O)Nc2ccccc2F)C1=O (single isomer, unassigned)")
50
>>> readout_value("O=C1NCC(c2cccc(Oc3ccc(F)cn3)c2)C1C(=O)Nc1cccc(F)c1F (single isomer, unassigned)")
30
>>> readout_value("CN1CC(c2cccc(Oc3ncc(F)cc3F)c2)C(C(=O)Nc2cccc(F)c2F)C1=O (single isomer, unassigned)")
40
>>> readout_value("CN1CC(c2cccc(Oc3ccc(F)cn3)c2)C(C(=O)Nc2ccccc2F)C1=O (single isomer, unassigned)")
30
>>> readout_value("CC1(COc2cccc(C3CNC(=O)C3C(=O)Nc3ccccc3F)c2)COC1 (stereo not shown)")
0
>>> readout_value("O=C1NCC(c2cccc(OCc3ccco3)c2)C1C(=O)Nc1ccccc1Cl (stereo not shown)")
0
>>> readout_value("O=C1NCC(c2cccc(Oc3ccccn3)c2)C1C(=O)Nc1ccccc1F (stereo not shown)")
0
>>> readout_value("O=C1NCC(c2cccc(OCc3ccccc3)c2)C1C(=O)Nc1ccc(F)cc1F (stereo not shown)")
0
>>> readout_value("O=C1NCC(c2cccc(Oc3ncc(F)cn3)c2)C1C(=O)Nc1cccc(F)c1F (single isomer, unassigned)")
0
>>> readout_value("O=C1NCC(c2cccc(OCc3ccccc3)c2)C1C(=O)Nc1ccc(F)c(F)c1F (stereo not shown)")
0
>>> readout_value("O=C1NCC(c2cccc(Oc3ccc(F)cn3)c2)C1C(=O)Nc1ccccc1F (single isomer, unassigned)")
0
>>> readout_value("O=C1NCC(c2cccc(Cn3cncn3)c2)C1C(=O)Nc1ccccc1F (stereo not shown)")
0
>>> readout_value("O=C1NCC(c2cccc(Oc3ncc(F)cn3)c2)C1C(=O)Nc1ccccc1F (single isomer, unassigned)")
0
>>> readout_value("CN1CC(c2cccc(Sc3ccccc3)c2)C(C(=O)Nc2cccc(F)c2F)C1=O (single isomer, unassigned)")
20
>>> readout_value("O=C1NCC(c2cccc(COc3ccccc3)c2)C1C(=O)Nc1ccc(F)cc1F (stereo not shown)")
0
>>> readout_value("CN1CC(c2cccc(Sc3ccccc3)c2)C(C(=O)Nc2ccccc2F)C1=O (single isomer, unassigned)")
0
>>> readout_value("O=C1NCC(c2cccc(COc3ccccc3)c2)C1C(=O)Nc1ccccc1F (stereo not shown)")
0
>>> readout_value("O=C1NCC(c2cccc(Oc3ccc(C(F)(F)F)cn3)c2)C1C(=O)Nc1ccccc1F (single isomer, unassigned)")
0
>>> readout_value("O=C1NCC(c2cccc(Oc3ccccn3)c2)C1C(=O)Nc1ccc(F)c(F)c1F (stereo not shown)")
0
>>> readout_value("O=C1NCC(c2cccc(Oc3ccccn3)c2)C1C(=O)Nc1ccccc1Cl (stereo not shown)")
0
>>> readout_value("CC1(COc2cccc(C3CNC(=O)C3C(=O)Nc3ccccc3C(F)(F)F)c2)COC1 (stereo not shown)")
0
